assay.summary: LIVE/DEAD cell viability in alginate beads
Format: cell-based
conditions: bovine, bovine intervertebral disc NP and AF cells in alginate beads, 1 μg/ml, 18 days, alginate scaffolds, read-out: cellular viability
Where no end group is shown, it is not given here.
Readings of viability at 432 h, 1 µg/mL for the listed sequences

Query string: Consider the sequence shown here: DHLSDNYTLDHDRAIH [Link N, DHLSDNYTLDHDRAIH] What is its recorded viability at 432 h, 1 µg/mL?
Result string: > 98%

Moving on to the next sequence.
Query string: Consider the sequence shown here: DHHSDNYTVDHDRVIH [BLN, DHHSDNYTVDHDRVIH] What is its recorded viability at 432 h, 1 µg/mL?
Result string: > 98%
